Values compiled from the supplement of paper PMC9112550.

Here the recorded shrunken log2 fold change is given for each entry.
- System: Escherichia coli TOP10;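 also: peptides expressed intracellularly from a pBAD plasmid library in pooled LB shake-flask culture, induced with 0.3% L-arabinose, DNA abundance read by NGS, three biological replicates, DESeq2 with apeglm shrinkage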
- experiment: shrunken log2 fold change of peptide-encoding DNA abundance (4.5 h post-induction vs induction); higher = less antimicrobial activity (less host growth inhibition)
- assaySetup: time post-induction: 4.5 h; library: site-saturation at positions 5, 18, 19, 20

{"columns": ["seqText", "studySystem", "shrunken log2 fold change"],
 "data": [
  ["RRIRQRPPRLPRPRPRPLAGPRP", "Escherichia coli TOP10", 0.166],
  ["RRIRQRPPRLPRPRPRPFNAPRP", "Escherichia coli TOP10", -0.233],
  ["RRIRCRPPRLPRPRPRPHEHPRP", "Escherichia coli TOP10", 1.94],
  ["RRIRTRPPRLPRPRPRPGHRPRP", "Escherichia coli TOP10", -0.216],
  ["RRIRNRPPRLPRPRPRPNIIPRP", "Escherichia coli TOP10", -0.784],
  ["RRIRNRPPRLPRPRPRPCGGPRP", "Escherichia coli TOP10", -0.0209],
  ["RRIRDRPPRLPRPRPRPLYDPRP", "Escherichia coli TOP10", -0.107],
  ["RRIRQRPPRLPRPRPRPMPTPRP", "Escherichia coli TOP10", 0.0311],
  ["RRIRDRPPRLPRPRPRPQALPRP", "Escherichia coli TOP10", 0.214],
  ["RRIRCRPPRLPRPRPRPIQFPRP", "Escherichia coli TOP10", -0.131],
  ["RRIRGRPPRLPRPRPRPDRFPRP", "Escherichia coli TOP10", 0.375],
  ["RRIRRRPPRLPRPRPRPHMAPRP", "Escherichia coli TOP10", -0.128],
  ["RRIRDRPPRLPRPRPRPLPCPRP", "Escherichia coli TOP10", 0.0544],
  ["RRIRVRPPRLPRPRPRPINAPRP", "Escherichia coli TOP10", -0.174],
  ["RRIRNRPPRLPRPRPRPIKAPRP", "Escherichia coli TOP10", -0.0167],
  ["RRIRKRPPRLPRPRPRPKFSPRP", "Escherichia coli TOP10", 0.0774],
  ["RRIRDRPPRLPRPRPRPNLGPRP", "Escherichia coli TOP10", -0.00884],
  ["RRIRPRPPRLPRPRPRPDHRPRP", "Escherichia coli TOP10", -0.0495],
  ["RRIRDRPPRLPRPRPRPSVDPRP", "Escherichia coli TOP10", 0.0621],
  ["RRIRGRPPRLPRPRPRPYTQPRP", "Escherichia coli TOP10", -0.0862],
  ["RRIRVRPPRLPRPRPRPWDAPRP", "Escherichia coli TOP10", -0.0951],
  ["RRIRWRPPRLPRPRPRPCSHPRP", "Escherichia coli TOP10", -0.264],
  ["RRIRWRPPRLPRPRPRPFVYPRP", "Escherichia coli TOP10", -0.428],
  ["RRIRSRPPRLPRPRPRPGQEPRP", "Escherichia coli TOP10", -0.0151],
  ["RRIRARPPRLPRPRPRPANNPRP", "Escherichia coli TOP10", -0.0617],
  ["RRIRPRPPRLPRPRPRPQCTPRP", "Escherichia coli TOP10", -0.0867],
  ["RRIRNRPPRLPRPRPRPKEPPRP", "Escherichia coli TOP10", 0.0169],
  ["RRIRLRPPRLPRPRPRPCEDPRP", "Escherichia coli TOP10", 0.00976],
  ["RRIRTRPPRLPRPRPRPDPSPRP", "Escherichia coli TOP10", -0.0208],
  ["RRIRGRPPRLPRPRPRPDEQPRP", "Escherichia coli TOP10", -0.0342],
  ["RRIRMRPPRLPRPRPRPFFAPRP", "Escherichia coli TOP10", 0.445],
  ["RRIRWRPPRLPRPRPRPIYSPRP", "Escherichia coli TOP10", -0.0292],
  ["RRIRHRPPRLPRPRPRPCVPPRP", "Escherichia coli TOP10", -0.00981],
  ["RRIRFRPPRLPRPRPRPSVPPRP", "Escherichia coli TOP10", -0.0911],
  ["RRIRLRPPRLPRPRPRPPIMPRP", "Escherichia coli TOP10", -0.239],
  ["RRIRHRPPRLPRPRPRPDSEPRP", "Escherichia coli TOP10", -0.0112],
  ["RRIRLRPPRLPRPRPRPFQPPRP", "Escherichia coli TOP10", 0.113],
  ["RRIRIRPPRLPRPRPRPAPWPRP", "Escherichia coli TOP10", 0.0917],
  ["RRIRNRPPRLPRPRPRPFMQPRP", "Escherichia coli TOP10", -0.194],
  ["RRIRTRPPRLPRPRPRPFACPRP", "Escherichia coli TOP10", -0.198],
  ["RRIRYRPPRLPRPRPRPRNPPRP", "Escherichia coli TOP10", 0.0734],
  ["RRIRQRPPRLPRPRPRPCQEPRP", "Escherichia coli TOP10", -0.015],
  ["RRIRYRPPRLPRPRPRPRTYPRP", "Escherichia coli TOP10", -0.71],
  ["RRIRDRPPRLPRPRPRPCYNPRP", "Escherichia coli TOP10", -0.271],
  ["RRIRQRPPRLPRPRPRPGKYPRP", "Escherichia coli TOP10", -0.17],
  ["RRIRSRPPRLPRPRPRPNQCPRP", "Escherichia coli TOP10", -0.215],
  ["RRIRERPPRLPRPRPRPATRPRP", "Escherichia coli TOP10", 0.102],
  ["RRIRVRPPRLPRPRPRPCTAPRP", "Escherichia coli TOP10", 0.172],
  ["RRIRRRPPRLPRPRPRPDDEPRP", "Escherichia coli TOP10", 0.0458],
  ["RRIRVRPPRLPRPRPRPKLPPRP", "Escherichia coli TOP10", -0.266],
  ["RRIRHRPPRLPRPRPRPYGTPRP", "Escherichia coli TOP10", -1.41],
  ["RRIRTRPPRLPRPRPRPYIVPRP", "Escherichia coli TOP10", -1.04],
  ["RRIRMRPPRLPRPRPRPYNCPRP", "Escherichia coli TOP10", -0.0909],
  ["RRIRARPPRLPRPRPRPFYTPRP", "Escherichia coli TOP10", -0.685],
  ["RRIRQRPPRLPRPRPRPGASPRP", "Escherichia coli TOP10", 0.326],
  ["RRIRLRPPRLPRPRPRPRPLPRP", "Escherichia coli TOP10", 0.579],
  ["RRIRCRPPRLPRPRPRPIVEPRP", "Escherichia coli TOP10", -0.151],
  ["RRIRYRPPRLPRPRPRPPSHPRP", "Escherichia coli TOP10", -0.383],
  ["RRIRIRPPRLPRPRPRPTCLPRP", "Escherichia coli TOP10", -0.0168],
  ["RRIRWRPPRLPRPRPRPVIVPRP", "Escherichia coli TOP10", -0.0785],
  ["RRIRHRPPRLPRPRPRPLVPPRP", "Escherichia coli TOP10", -0.0575],
  ["RRIRLRPPRLPRPRPRPLNRPRP", "Escherichia coli TOP10", -0.317],
  ["RRIRPRPPRLPRPRPRPDCKPRP", "Escherichia coli TOP10", -0.133]
]}
